Ref: paper PMC9482650

- System Name: TJP1_2, Q07157
- Sequence (Q07157 181-274): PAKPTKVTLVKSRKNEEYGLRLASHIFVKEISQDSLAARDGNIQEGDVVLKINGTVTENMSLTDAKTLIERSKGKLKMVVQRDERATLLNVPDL
- Assay Info: holdup assay
- Parameters: key: below the threshold = too weak to quantify, mostly under pKd 3.1 to 4
- Condition Info: plain residues with an end cap or a label only (N-terminal biotin on a linker: ado-ado)
Property Measured: pKd

| Binder | Readout Value |
| --- | --- |
| SKQFDKNAYV [CLDN10, P78369] | 3.61 |
| PLATCDETSI [SEMA4F, O95754] | below the threshold |
| IGHEDLETAV [DGKI, O75912] | below the threshold |
| KSRPENGTVC [TMEM178B, H3BS89] | below the threshold |
| PEKVSNTTVV [IGSF5, Q9NSI5] | below the threshold |
| SRPHTNETSL [MCC, P23508] | below the threshold |
| PLPPEEESWV [GAS2L2, Q8NHY3] | below the threshold |
| NSTHNLKDYV [CLDN20, P56880] | below the threshold |
